Each entry below lists one item and its recorded pKd value.
- System name: T1, mouse CTGF (Abbexa) (mouse, UniProt P29268 26-348, limits assumed)
- T1 construct: also called Murine CTGF; mCTGF
- T1 sequence (looked up): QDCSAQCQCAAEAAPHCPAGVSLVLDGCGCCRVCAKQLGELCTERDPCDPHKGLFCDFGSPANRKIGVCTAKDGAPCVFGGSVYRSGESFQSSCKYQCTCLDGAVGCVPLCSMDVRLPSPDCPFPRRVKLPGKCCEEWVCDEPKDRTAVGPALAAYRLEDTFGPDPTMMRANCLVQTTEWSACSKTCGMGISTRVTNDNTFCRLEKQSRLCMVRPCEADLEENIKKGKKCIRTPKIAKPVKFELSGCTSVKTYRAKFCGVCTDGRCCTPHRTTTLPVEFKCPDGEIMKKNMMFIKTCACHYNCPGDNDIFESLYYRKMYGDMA
- Assay method text: SPR (Biacore)
// pKd: -log10(molar conc.)

{"columns": ["Binder", "pKd"],
 "data": [
  ["lipocalin mutein of SEQ ID NO: 8 (designed binder, also called hNGAL mutein; not shown: C-terminal His-tag) QDSTSDLIPAPPLSKVPLQQNFQDNQFQGKWYVVGLAGNYGLRTDKRPSKMFATIYELKEDKSYDVTSVRFEQERCHYTIRTFVPGSQPGEFTSGNIGNYPGSYSTLVRVVSTNYNQHAMVFFKSVIQNREYFAITLYGRTKELTSELKENFIRFSKSLGLPENHIVFPVPIDQCIDG", 8.74],
  ["lipocalin mutein of SEQ ID NO: 16 (designed binder, also called hNGAL mutein; not shown: C-terminal His-tag) QDSTSDLIPAPPLSKVPLQQNFQDNQFQGKWYVVGLAGNAILRTDKQPAKMFATIYELKEDKSYDVTSVRFEAKSCVYTIKTFVPGSQPGEFTAGNIKSAPGQTSTLVRVVSTNYNQHAMVFFKHVSQNREFFVITLYGRTKELTSELKENFIRFSKSLGLPENHIVFPVPIDQCIDG", 9.41]
]}

Please examine the following record next.
Query block: Name the recorded pKd of the binder listed here: lipocalin mutein of SEQ ID NO: 33 (designed binder, also called hNGAL mutein; not shown: C-terminal His-tag) QDSTSDLIPAPPLSKVPLQQNFQDNQFQGKWYVVGWAGNAKLREDKQPFKMSATIYELKEDKSYDVTEVVFEQKKCHYIIKTFVPGSQPGEFTEGNYKRRPRLWSDLVRVVSTNYNQHAMVFFKKVHQNREFFWITLYGRTKELTSELKENFIRFSKSLGLPENHIVFPVPIDQCIDG
Result block: 9.52

Data credit: patent US20240228562A1
